Every entry's value here was drawn from patent US8247211B2.

Below is a list of entries, each paired with its recorded MIC Enterococcus faecium (GC 4557) value.
- Tested on: Enterococcus sp.
- experimental protocol: In vitro antibacterial evaluation: minimum inhibitory concentration (MIC), broth dilution method
- Type: cell-based
- stated conditions: broth dilution, inoculum 5×10^5 CFU/mL, 18 hours at 35° C.

{"columns": ["molecule", "unit", "MIC Enterococcus faecium (GC 4557)"],
 "data": [
  ["CC(c1ccccc1)C1NC(=O)CNC(=O)C(CO)NC(=O)C(C(O)C2CNC(=N)N2C2OC(CO)C(O)C(O)C2O)NC(=O)C(C(O)C2CNC(=N)N2)NC(=O)C(Cc2ccc(OC3OC(CO)C(OC4OC(CO)C(O)C5OC6(CCCCCCCCCCCC6)OC45)C(O)C3O)cc2)NC1=O (centres unmarked) [Example 210a]", "µg/mL", 4],
  ["CC(c1ccccc1)C1NC(=O)CNC(=O)C(CO)NC(=O)C(CC2CNC(=N)N2C2OC(CO)C(O)C(O)C2O)NC(=O)C(CC2CNC(=N)N2)NC(=O)C(Cc2ccc(OC3OC(CO)C(OC4OC5COC(c6ccc(OCc7ccccc7)cc6)OC5C(O)C4O)C(O)C3O)cc2)NC1=O (centres unmarked) [Example 191]", "µg/mL", 4],
  ["CC(c1ccccc1)C1NC(=O)CNC(=O)C(CO)NC(=O)C(C(O)C2CNC(=N)N2C2OC(CO)C(O)C(O)C2O)NC(=O)C(C(O)C2CNC(=N)N2)NC(=O)C(Cc2ccc(OC3OC(CO)C(OC4OC5COC(c6ccc(C(=O)c7ccc(I)cc7)cc6)OC5C(O)C4O)C(O)C3O)cc2)NC1=O (centres unmarked) [Example 186]", "µg/mL", 2],
  ["COc1ccc(Oc2cccc(C3OCC4OC(OC5C(CO)OC(Oc6ccc(CC7NC(=O)C(C(C)c8ccccc8)NC(=O)CNC(=O)C(CO)NC(=O)C(C(O)C8CNC(=N)N8C8OC(CO)C(O)C(O)C8O)NC(=O)C(C(O)C8CNC(=N)N8)NC7=O)cc6)C(O)C5O)C(O)C(O)C4O3)c2)cc1 (centres unmarked) [Example 180]", "µg/mL", 2],
  ["CCOc1cc(C2OCC3OC(OC4C(CO)OC(Oc5ccc(CC6NC(=O)C(C(C)c7ccccc7)NC(=O)CNC(=O)C(CO)NC(=O)C(C(O)C7CNC(=N)N7C7OC(CO)C(O)C(O)C7O)NC(=O)C(C(O)C7CNC(=N)N7)NC6=O)cc5)C(O)C4O)C(O)C(O)C3O2)ccc1[N+](=O)[O-] (centres unmarked) [Example 167]", "µg/mL", 8],
  ["CC(c1ccccc1)C1NC(=O)CNC(=O)C(CO)NC(=O)C(CC2CNC(=N)N2C2OC(CO)C(O)C(O)C2O)NC(=O)C(CC2CNC(=N)N2)NC(=O)C(Cc2ccc(OC3OC(CO)C(OC4OC5COC6(OC5C(O)C4O)C4CC5CC(C4)CC6C5)C(O)C3O)cc2)NC1=O (centres unmarked) [Example 219]", "µg/mL", 4],
  ["CC(c1ccccc1)C1NC(=O)CNC(=O)C(CO)NC(=O)C(C(O)C2CNC(=N)N2C2OC(CO)C(O)C(O)C2O)NC(=O)C(C(O)C2CNC(=N)N2)NC(=O)C(Cc2ccc(OC3OC(CO)C(OC4OC5COC(c6cccc(Oc7cccc(C(F)(F)F)c7)c6)OC5C(O)C4O)C(O)C3O)cc2)NC1=O (centres unmarked) [Example 184]", "µg/mL", 32],
  ["CC(c1ccc(Cl)cc1)C1NC(=O)CNC(=O)C(CO)NC(=O)C(C(O)C2CNC(=N)N2C2OC(CO)C(O)C(O)C2O)NC(=O)C(C(O)C2CNC(=N)N2)NC(=O)C(Cc2ccc(OC3OC(CO)C(OC4OC5COC(c6ccccc6)OC5C(O)C4O)C(O)C3O)cc2)NC1=O (centres unmarked) [Example 195]", "µg/mL", 0.5]
]}
